- Tgt: T1, soluble cynomolgus GPNMB (recombinant extracellular domain) (cynomolgus, UniProt Q14956 23-499 (human entry), limits assumed)
- T1 chain: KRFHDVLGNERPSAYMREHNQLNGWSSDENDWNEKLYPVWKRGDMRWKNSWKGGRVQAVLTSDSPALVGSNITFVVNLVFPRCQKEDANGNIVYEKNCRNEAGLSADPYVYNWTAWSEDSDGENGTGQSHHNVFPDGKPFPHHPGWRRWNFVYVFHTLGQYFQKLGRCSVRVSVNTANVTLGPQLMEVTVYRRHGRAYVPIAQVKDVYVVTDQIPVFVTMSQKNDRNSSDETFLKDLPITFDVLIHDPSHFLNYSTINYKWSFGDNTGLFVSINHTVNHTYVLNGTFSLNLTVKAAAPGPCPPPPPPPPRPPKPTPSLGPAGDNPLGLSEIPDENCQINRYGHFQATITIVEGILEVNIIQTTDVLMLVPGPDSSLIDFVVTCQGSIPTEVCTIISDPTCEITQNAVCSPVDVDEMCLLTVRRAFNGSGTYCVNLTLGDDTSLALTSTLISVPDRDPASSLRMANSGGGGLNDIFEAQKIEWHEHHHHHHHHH
- Method Description: SPR Carterra, Ab immobilized
Metric: koff (s⁻¹)
Quick reminder: number only, in s⁻¹, skip the unit.

anti-GPNMB antibody GPN-07 (antibody, human IgG1, V domains shown, chimeric) VH: QVQLQQSGAEQVKPGASVKLSCKASGYTFTSYYMYWVKQRPGQGLEWIGEINPSNGGTYFNEKFKSKATLTVDKSSSTAYMHLSSLTSEDSAVYYCTRGGTYYAYWGQGTLVTVSA VL: DIQMTQSPSSLSASLGERVSLTCRASQEMSGHLSWLQQKPDGTIKRLIYAASTLDSGVPKRFSGSRSGSDYSLTISSLESEDFADYYCLQYASYPYTFGGGTKLEIK	0.00025
anti-GPNMB antibody GPN-03 (antibody, human IgG1, V domains shown, chimeric) VH: QVQLQQSGPELVKPGASVKLSCKASGYTFTNYYMYWVKQRPGQGLEWIGEINPRNGGTNFNEKFKSKATLTVDKSSSTAYMQLSSLTFEDSAVYYCTTGLAYWGQGTLVTVSA VL: DVVMTQTPLSLPVSLGDQASISCRSSQSLVHSDGNTYLHWYLQKPGQSPKLLIYKVSTRFSGVPDRFSGSGSGTDFTLKISRVEAEDLGVYFCSQSTHVPWTFGGGTKLEIK	0.0021
anti-GPNMB antibody GPN-25 (antibody, human IgG1, V domains shown, chimeric) VH: EVQLQQSGPELVKPGASVKISCKASGYSFTGYYMNWVKQSPEKSLEWIGEINPGSGITTYNQKFKAKATLTVDKSSSTAYLQLKSLTSEDSAVYYCARPASWFAYWGQGTLVTVSA VL: DIQMTQSPSSLSASLGERVSFICRASQEISGHLSWLQQKPDGTIKRLIYAASTLDSGVPKRFSGSRSGSDYSLTISSLESEDFADYYCLQYASYPYTFGGGTKLEIK	0.0002

(Q) Fill in: koff of anti-GPNMB antibody GPN-30 (antibody, human IgG1, V domains shown, chimeric) VH: EVQLQQSGPELVNPGASVRISCKASGYSFTGYYMNWVKQSPEKSLEWIGEINPNTGFTTYNQNFKAKATLTVDKSSSTAYIQLKSLTSEDSAVYYCTRPSPSFDYWGQGTTLTVSS VL: DIQMTQSPSSLSASLGERGSLTCRASQEISGHLSWLQQKPDGTIKRLIYAASTLDSGVPKRFSGSRSGSDYSLTISSLESEDFADYYCLQYASYPYTFGGGTKLEIK is ___
(A) 0.00013

(Q) Reported koff, binder anti-GPNMB antibody GPN-09 (antibody, human IgG1, V domains shown, chimeric) VH: QVQLQQSGAELVKPGASVKLSCKASGYTFTSYYIYWVKQRPGQGLEWIGEINPSNGGTYFNEKFKNKATLTVDKSSSTAYMQLSSLTSEDSAVYYCTRGGNYYAYWGQGTLVTVSA VL: DIQMTQSPSSLSASLGERVSLTCRASQEISGHLGWLQQKPDGTIKRLIYAALTLDSGVPKRFSGSRSGSDYSLTISSLESEDFADYYCLQYASYPYTFGGGTKLEIK : ____
(A) 0.00012
